target: peptide-binding domain of GRP78 (GRP78-PBD, amino acids 421-639) (Homo sapiens, UniProt P11021); assay: Surface plasmon resonance, GRP78-PBD binding to chip-bound N-terminal biotin-labeled CTPs/TR-CTPs; conditions: N-terminal GGGGS extension, peptide immobilized on streptavidin chip
Sequence (P11021 421-639): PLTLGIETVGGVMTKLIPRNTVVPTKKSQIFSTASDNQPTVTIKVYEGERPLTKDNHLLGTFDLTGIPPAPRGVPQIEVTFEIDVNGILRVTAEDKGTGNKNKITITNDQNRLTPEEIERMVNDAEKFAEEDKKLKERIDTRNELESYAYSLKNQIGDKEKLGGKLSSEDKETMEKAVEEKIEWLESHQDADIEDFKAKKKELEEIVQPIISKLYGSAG
Where no end group is shown, it is not given here.
Item-by-item account of Association rate Kon

Study these solved cases before continuing.
seqText	Association rate Kon
RLLDTNRPFLFY [P13-CTP, reference compound]	1.2 × 10^3 M^−1S^−1
RPFLFPFLFY [F4P13-TR-CTP]	7.9 × 10^2 M^−1S^−1
RPFLPFLPYRPFLPFLPY [F5P6-TR-CTP]	8.9 × 10^2 M^−1S^−1

Lookup: Can you look up the measured Association rate Kon of RLLDTNRPFLPY [P6-CTP, reference compound] for me?
Found: 1.5 × 10^3 M^−1S^−1

Lookup: Same lookup for RPFLFPFLFYRPFLFPFLFY [F5P13-TR-CTP] , please.
Found: 1.9 × 10^3 M^−1S^−1

Lookup: What do we get for RPFLPFLPY [F4P6-TR-CTP] ?
Found: 2.3 × 10^3 M^−1S^−1

----------
biological target: peptide-binding domain of GRP78 (GRP78-PBD, amino acids 421-639) (Homo sapiens, UniProt P11021); assay: Surface plasmon resonance, GRP78-PBD binding to chip-bound N-terminal biotin-labeled CTPs/TR-CTPs; settings: N-terminal GGGGS extension, peptide immobilized on streptavidin chip, read-out: Dissociation constant KD
Where no end group is shown, it is not given here.
assayReadout: Kd (µM)

These recorded examples may help you get a feel for the data.
seqText	Kd, µM
RLLDTNRPFLPY [P6-CTP, reference compound]	1.9
RPFLPFLPY [F4P6-TR-CTP]	1.2

1. RPFLPFLPYRPFLPFLPY [F5P6-TR-CTP]
2. RPFLFPFLFY [F4P13-TR-CTP]
3. RPFLFPFLFYRPFLFPFLFY [F5P13-TR-CTP]
Lookup: Order the entries by their reported Kd, beginning at the minimum. Output spec: a listing of the labels in the requested order.
Found: 3, 1, 2
(3: 0.61 µM, 1: 1 µM, 2: 2.1 µM)

----------
target: GRP78-PBD (Homo sapiens, UniProt P11021); assay: Surface plasmon resonance, GRP78-PBD binding to chip-bound C-terminal biotin-labeled CTPs/TR-CTPs; conditions: C-terminal GGGGSK extension, biotin on C-terminal lysine; read-out: Dissociation constant KD
Sequence (P11021 421-639): as the sequence (P11021 421-639) above
pKd: −log10 of the molar value. Where no end group is shown, it is not given here.
assayReadout: pKd

a. RLLDTNRPFLFY [P13-CTP, reference compound]
b. RPFLFPFLFY [F4P13-TR-CTP]
Lookup: From the recorded data, which exceeds the other in pKd: a or b ? Refer to your chosen entry by its label in the reply.
Found: b

----------
Biological target: peptide-binding domain of GRP78 (GRP78-PBD, amino acids 421-639) (Homo sapiens)
Assay: Surface plasmon resonance, GRP78-PBD binding to chip-bound N-terminal biotin-labeled CTPs/TR-CTPs
Details: N-terminal GGGGS extension, peptide immobilized on streptavidin chip
Text: Biotin-labeled TR-CTPs and CTPs were synthesized (Biotools Co., Ltd, Taiwan) to evaluate kinetics of binding to GRP78 by surface plasmon resonance. TR-CTPs and CTPs were extended by five amino acids (GGGGS; SEQ ID NO: 9) at their N-termini. The N-termini were labeled with a single biotin molecule per TR-CTP/CTP through an aminohexanoic acid linkage. […]
Where no end group is shown, it is not given here.
Here, each record is paired with measured Dissociation rate Koff data.

Some sequences with recorded Dissociation rate Koff:
seqText	valueMeasured
RPFLPFLPYRPFLPFLPY [F5P6-TR-CTP]	9.1×10^−4 S^−1
RPFLFPFLFYRPFLFPFLFY [F5P13-TR-CTP]	1.2×10^−3 S^−1

Lookup: Reported Dissociation rate Koff for RPFLFPFLFY [F4P13-TR-CTP] : what is it?
Found: 1.7×10^−3 S^−1

Lookup: Entry to check: RLLDTNRPFLPY [P6-CTP, reference compound]
Found: 3.0×10^−3 S^−1

Lookup: Next sequence up: RLLDTNRPFLFY [P13-CTP, reference compound]
Found: 3.4×10^−3 S^−1

Lookup: Also, RPFLPFLPY [F4P6-TR-CTP] please.
Found: 2.8×10^−3 S^−1

Sourced from patent US11643437B2
